# Tested on: VCaP (Prostate Carcinoma)
# METHOD SUMMARY: combination Emax (second highest fraction inhibited in the dose matrix, 72 h); higher = more inhibition; extreme values may be limits of the assay
EXPERIMENTAL ENDPOINT: combination Emax
Write the number on its own, no unit after it.

Solved entries (count: 2):
{"MOLECULE": "Cn1cnc2c(F)c(Nc3ccc(Br)cc3Cl)c(C(=O)NOCCO)cc21 [Selumetinib] + CC(C)n1c(=O)n(C)c2cnc3cc(F)c(-c4ccc(OCCCN5CCCCC5)nc4)cc3c21 [AZD1390] (first compound max 10 µM, 7x7, partner max 0.3 µM)", "TEST TARGET": "VCaP (Prostate Carcinoma)", "combination Emax": 0.0626}
{"MOLECULE": "COc1cccc(OCCCN)c1-c1cc(Nc2cnc(C#N)cn2)n[nH]1 [Prexasertib] + O=C(c1cc(Cc2n[nH]c(=O)c3ccccc23)ccc1F)N1CCN(C(=O)C2CC2)CC1 [Olaparib] (first compound max 1 µM, 7x7, partner max 10 µM)", "TEST TARGET": "VCaP (Prostate Carcinoma)", "combination Emax": 0.797}

Kindly consider the entry below.
Tell me the measured combination Emax of Cc1c2c(nn1C)CSCc1cc(n(C)n1)CSc1cc(c3ccccc3c1)OCCCc1c(C(=O)O)n(C)c3c-2c(Cl)ccc13 [AZD5991] + CCN(CCO)CCCOc1ccc2c(Nc3cc(CC(=O)Nc4cccc(F)c4)[nH]n3)ncnc2c1 [AZD2811] (first compound max 1 µM, 7x7, partner max 1 µM) , please.
0.94
